biological target: KRAS G12A (Homo sapiens, UniProt P01116, G12A); construct: 4 nM KRAS; aa1-188 containing the G12V, G12C, G12A or G12S amino acid substitution; experiment: HTRF nucleotide exchange assay (NEA), KRAS G12A; details: recombinant human KRAS aa1-188 G12A, 4 nM; 60 min compound incubation, EDA-GTP-DY647P1
Sequence (P01116 1-188 isoform P01116-2 G12A): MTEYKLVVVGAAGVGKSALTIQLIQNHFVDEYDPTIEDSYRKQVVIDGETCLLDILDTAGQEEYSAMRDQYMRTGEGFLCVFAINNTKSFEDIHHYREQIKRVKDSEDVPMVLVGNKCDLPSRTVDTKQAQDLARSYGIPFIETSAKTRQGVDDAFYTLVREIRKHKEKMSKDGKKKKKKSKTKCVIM
Quick reference: IC50 of the listed items.

Examples with answers:
> print(dat)
                                   compound     measurement
1  Cc1c(-c2cccc3sc(N)c(C#N)c23)ccc2c(N3CCCOCC3)nc(OCC34CCCN3CCC4)nc12 [Example 22]  0.01 to 0.1 µM
2  C#Cc1c(F)ccc2cc(O)cc(-c3ccc4c(N5CCCOCC5)nc(OC[C@@]56CCCN5C[C@H](F)C6)nc4c3F)c12 (racemic) [Example 26]       < 0.01 µM

response.value for C#Cc1c(F)ccc2cc(O)cc(-c3ccc4c(N5CCCOCC5)nc(OC[C@@]56CCCN5C[C@H](F)C6)nc4c3C)c12 (racemic) [Example 6] (field: IC50) = < 0.01 µM

IC50 measured on Oc1cc(-c2ccc3c(N4CCCOCC4)nc(OCC45CCCN4CCC5)nc3c2F)c2ccccc2c1 [Example 25] = 0.01 to 0.1 µM

// IC50 value for C#Cc1c(F)ccc2cc(O)cc(-c3ccc4c(N5CCCNC(=O)C5)nc(OC[C@@]56CCCN5C[C@H](F)C6)nc4c3C)c12 (racemic) [Example 24] : < 0.01 µM

Summary for this compound, N#Cc1cc2c(N3CCCOCC3)nc(OCC34CCCN3CCC4)nc2c(F)c1-c1cc(O)cc2ccccc12 [Example 27] : IC50 is 0.1 to 10 µM

---

biological target: KRAS G12V (Homo sapiens, UniProt P01116, G12V); construct: 4 nM KRAS; aa1-188 containing the G12V, G12C, G12A or G12S amino acid substitution; experiment: HTRF nucleotide exchange assay (NEA), KRAS G12V; conditions: recombinant human KRAS aa1-188 G12V, 4 nM; 60 min compound incubation, EDA-GTP-DY647P1
Sequence (P01116 1-188 isoform P01116-2 G12V): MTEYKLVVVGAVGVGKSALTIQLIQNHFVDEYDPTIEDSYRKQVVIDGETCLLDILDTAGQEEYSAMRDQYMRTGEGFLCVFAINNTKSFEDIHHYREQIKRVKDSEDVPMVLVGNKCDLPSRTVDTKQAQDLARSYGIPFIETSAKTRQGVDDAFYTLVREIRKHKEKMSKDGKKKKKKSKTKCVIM
pIC50: −log10 of the molar value.
Recorded measurements of pIC50, one per entry

Solved cases below.
> print(dat)
                                   compound  experimental.endpoint   measurement
1  C#Cc1c(F)ccc2cc(O)cc(-c3ccc4c(N5CCCOCC5)nc(OC[C@@]56CCCN5C[C@H](F)C6)nc4c3C)c12 (racemic)                  pIC50        > 8.00
2  Oc1cc(-c2ccc3c(N4CCCOCC4)nc(OCC45CCCN4CCC5)nc3c2F)c2ccccc2c1                  pIC50  7.00 to 8.00

Record summary for `N#Cc1cc2c(N3CCCOCC3)nc(OCC34CCCN3CCC4)nc2c(F)c1-c1cc(O)cc2ccccc12` : reported pIC50 = 7.00 to 8.00

For `Cc1c(-c2cccc3sc(N)c(C#N)c23)ccc2c(N3CCCOCC3)nc(OCC34CCCN3CCC4)nc12` the compound record lists pIC50 as > 8.00

The value of pIC50 measured for the compound C#Cc1c(F)ccc2cc(O)cc(-c3ccc4c(N5CCCNC(=O)C5)nc(OC[C@@]56CCCN5C[C@H](F)C6)nc4c3C)c12 (racemic) turned out to be > 8.00

For record `Cc1c(-c2cc(O)cc3ccccc23)ccc2c(N3CCCOCC3)nc(OCC34CCCN3CCC4)nc12` the listed pIC50 is 5.00 to 7.00

What the record says about C#Cc1c(F)ccc2cc(O)cc(-c3ccc4c(N5CCCOCC5)nc(OC[C@@]56CCCN5C[C@H](F)C6)nc4c3F)c12 (racemic) : pIC50 is > 8.00

Taken from patent US20240287078A1.
